Exercise: state measured pIC50 for each of the molecules provided.
organism: Homo sapiens; test: In vitro inhibitory activity against LTB4 synthesis in A-23187 stimulated human whole blood (HB1).; assay type: functional
Give only the number. pIC50 is defined as minus log10 of concentration in molar units.

stdin: // pIC50 lookup, key: `COC1(c2csc(Sc3ccc4c(c3)OCC/C4=N\O)c2)CCOCC1`
stdout: 7.40

stdin: // query: `COC1(c2cc(F)cc(Sc3ccc(/C(C)=N/OCC#N)cc3)c2)CCOCC1`
stdout: 7.70

stdin: Then this molecule: `COC1(c2cc(F)cc(Sc3ccc(/C(C)=N/OC(=O)C(C)(C)C)cc3)c2)CCOCC1`
stdout: 7.40

stdin: `CO[C@]1(c2cnc(S(=O)(=O)c3ccc(/C(C)=N/O)cc3)s2)CCO[C@@H](C)C1` , same question.
stdout: 6.49

stdin: Also need `C/C(=N\OC(=O)N(C)C)c1ccc(Sc2cc(F)cc(C3CCOCC3)c2)cc1` , thanks.
stdout: 5.58

stdin: `CO/N=C(\C)c1ccc(Sc2cc(F)cc([C@@]3(OC)CCO[C@@H](C)C3)c2)cc1` ?
stdout: 6.85

stdin: Now consider `COC1(c2cc(F)cc(Sc3ccc4c(c3)CC/C4=N\OCC#N)c2)CCOCC1` .
stdout: 7.52

stdin: Let us now turn to `CO[C@]1(c2cc(F)cc(S(=O)(=O)c3ccc(/C(C)=N/O)cc3)c2)CCO[C@@H](C)C1`
stdout: 7.70

stdin: Let us now turn to `COC1(c2csc(Sc3ccc4c(c3)OCC/C4=N\OCC#N)c2)CCOCC1`
stdout: 7.22

stdin: Then `COC1(c2csc(Sc3ccc4c(c3)CC/C4=N\O)c2)CCOCC1` ?
stdout: 6.89

stdin: Proceed to `CO[C@]1(c2cnc(S(=O)(=O)c3ccc(/C(C)=N/OCC#N)cc3)s2)CCO[C@@H](C)C1`
stdout: 6.85

stdin: Cool, now `COC1(c2cc(F)cc(Sc3ccc(/C(C)=N/OCCF)cc3)c2)CCOCC1`
stdout: 7.40

stdin: Would you kindly repeat that for `COC1(c2cc(F)cc(Sc3ccc(/C(=N/O)C(C)=O)cc3)c2)CCOCC1` ?
stdout: 6.07

stdin: Entry to check: `COC1(c2cc(F)cc(Sc3ccc(/C(=N/O)SC)cc3)c2)CCOCC1`
stdout: 6.72

stdin: Here is the next molecule: `CO[C@]1(c2cnc(Sc3ccc(/C(C)=N/OCC#N)cc3)s2)CCO[C@@H](C)C1`
stdout: 7.40

stdin: Likewise for `COC1(c2cc(F)cc(Sc3ccc(/C(C)=N/OCCSc4nnc(C)s4)cc3)c2)CCOCC1` ?
stdout: 6.64

stdin: Same lookup for `COC(=O)C(C)(C)CO/N=C(\C)c1ccc(Sc2cc(F)cc(C3(OC)CCOCC3)c2)cc1` , please.
stdout: 6.38

stdin: Then what about the molecule `CCOC(=O)CO/N=C(\C)c1ccc(Sc2cc(F)cc(C3(OC)CCOCC3)c2)cc1` ?
stdout: 6.21

stdin: Check `COC1(c2cc(F)cc(Sc3ccc(/C(=N/O)C(F)(F)F)cc3)c2)CCOCC1` too.
stdout: 6.55

stdin: Queued: `COC1(c2cc(F)cc(Sc3ccc(/C(C#N)=N/O)cc3)c2)CCOCC1`
stdout: 6.60

---

test: Solubility was evaluated; type: physicochemical
Measured Property: solubility (µM)
Number only, in µM; omit the unit.

stdin: Using the record for `CO[C@]1(c2cnc(S(=O)(=O)c3ccc(/C(C)=N/OCC#N)cc3)s2)CCO[C@@H](C)C1` , report its solubility.
stdout: 1

stdin: Now give it for `CO[C@]1(c2cc(F)cc(S(=O)(=O)c3ccc(/C(C)=N/O)cc3)c2)CCO[C@@H](C)C1` too.
stdout: 4.6

stdin: Same for `CO[C@]1(c2cc(F)cc(Sc3ccc(/C(C)=N/O)cc3)c2)CCO[C@@H](C)C1`
stdout: 0.6

stdin: Check `CO[C@]1(c2cnc(S(=O)(=O)c3ccc(/C(C)=N/O)cc3)s2)CCO[C@@H](C)C1` too.
stdout: 31

---

organism: Homo sapiens; assay: In vitro inhibitory activity against LTB4 synthesis in A-23187 stimulated human whole blood (HB1).; assay type: functional
Measured Property: log10(IC50) (log10 of the value in nM)
Hey, these are logged values: log10 of IC50, nM being the unit before logging.

stdin: Please look up its log10(IC50): `COC1(c2cc(F)cc(OCc3ccc4c(ccc(=O)n4C)c3)c2)CCOCC1`
stdout: 1.40

stdin: Would you kindly repeat that for `COC1(c2cc(F)cc(Sc3ccc4c(c3)OCC/C4=N\OCC#N)c2)CCOCC1` ?
stdout: 1.60

stdin: Now the compound `COC1(c2cc(F)cc(Sc3ccc(/C(C)=N/OC(C)=O)cc3)c2)CCOCC1`
stdout: 1.70

stdin: // same read-out, input: `CO[C@]1(c2cc(F)cc(Sc3ccc(/C(C)=N/OCC#N)cc3)c2)CCO[C@@H](C)C1`
stdout: 1.60

stdin: Thanks! And `CO[C@]1(c2cc(F)cc(Sc3ccc(/C(C)=N/O)cc3)c2)CCO[C@@H](C)C1` ?
stdout: 1.60

stdin: Ok, now `COC1(c2cc(F)cc(Sc3ccc4c(c3)CC/C4=N\O)c2)CCOCC1`
stdout: 2.46

stdin: Would you kindly repeat that for `CCOC(=O)c1csc(CO/N=C(\C)c2ccc(Sc3cc(F)cc(C4(OC)CCOCC4)c3)cc2)n1` ?
stdout: 2.18

stdin: Proceed to `COC1(c2cc(F)cc(Sc3ccc4c(c3)OCC/C4=N\O)c2)CCOCC1`
stdout: 1.70

---

species on record: Rattus norvegicus; assay: compound was tested for oral activity in the rat using zymosan-inflamed air pouch exudate at 3 hrs post dose(RAP).; format: functional
Assignment: determine reported ED50 for the given compounds.
Respond with the bare value in mg/kg.

stdin: What value of measured ED50 is listed for `COC1(c2csc(Sc3ccc4c(c3)OCC/C4=N\OCC#N)c2)CCOCC1` ?
stdout: 0.15

stdin: Same lookup for `CO[C@]1(c2cc(F)cc(Sc3ccc(/C(C)=N/OCC#N)cc3)c2)CCO[C@@H](C)C1` , please.
stdout: 0.15

stdin: Further, for `CO[C@]1(c2cc(F)cc(S(=O)(=O)c3ccc(/C(C)=N/OCC#N)cc3)c2)CCO[C@@H](C)C1` ?
stdout: 0.1

stdin: // next record `CO[C@]1(c2cnc(Sc3ccc(/C(C)=N/OCC#N)cc3)s2)CCO[C@@H](C)C1`
stdout: 0.3

stdin: What about this compound? `CO/N=C(\C)c1ccc(Sc2cc(F)cc([C@@]3(OC)CCO[C@@H](C)C3)c2)cc1`
stdout: 0.15

stdin: Request: `CO[C@]1(c2cnc(Sc3ccc(/C(C)=N/O)cc3)s2)CCO[C@@H](C)C1`
stdout: 0.3

stdin: How about `CO[C@]1(c2cnc(S(=O)(=O)c3ccc(/C(C)=N/O)cc3)s2)CCO[C@@H](C)C1` ?
stdout: 1

stdin: Try the compound `CO[C@]1(c2cc(F)cc(Sc3ccc(/C(C)=N/O)cc3)c2)CCO[C@@H](C)C1`
stdout: 0.05

stdin: Consider next the compound `CO[C@]1(c2cc(F)cc(S(=O)(=O)c3ccc(/C(C)=N/O)cc3)c2)CCO[C@@H](C)C1` in the same way.
stdout: 0.1

stdin: Try `CO[C@]1(c2cnc(S(=O)(=O)c3ccc(/C(C)=N/OCC#N)cc3)s2)CCO[C@@H](C)C1` next.
stdout: 0.5

Cited source: ChEMBL document CHEMBL1129182
